Where do the numbers come from? From the supplement of paper PMC10567573.

B1: RHOBTB2 (parent)
chain: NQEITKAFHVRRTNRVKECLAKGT

- Variants of: B1
- experimental_protocol: protein stability index of a GFP-peptide fusion (GPS, HEK-293T) (PSI 1-6); higher = more stable;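 also: lentivirally expressed fusions sorted by FACS into six bins by GFP to DsRed ratio, PSI derived from sequencing read proportions per bin multiplied by bin number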
- experimental_setup: c terminus: a fixed tail appended
Could you please report measured protein stability index for the items listed next?

Inquiry: What protein stability index value was documented for this variant, NKEITKAFHVRRTNRVKECLAKGT [Q2K] ?
Reply text: 3.78

Inquiry: Reported protein stability index for NQLITKAFHVRRTNRVKECLAKGT [E3L] : what is it?
Reply text: 3.66

Inquiry: Looking for the measured protein stability index of NQEITKAFHVRRTNRVKECLPKGT [A21P] , can you help?
Reply text: 3.38
